- STATED_CONDITIONS: in ethanol, 293.15 K

{"STRUCTURE": "CC(=O)OCC(=O)[C@@]12N=C(C)O[C@@H]1C[C@H]1[C@@H]3CCC4=CC(=O)C=C[C@]4(C)[C@H]3[C@@H](O)C[C@@]12C", "solubility (mole fraction)": 0.00167}

###

- STATED_CONDITIONS: in ethanol, 303.15 K
PROPERTY_NAME: solubility (mole fraction)

{"STRUCTURE": "CC(=O)OCC(=O)[C@@]12N=C(C)O[C@@H]1C[C@H]1[C@@H]3CCC4=CC(=O)C=C[C@]4(C)[C@H]3[C@@H](O)C[C@@]12C", "RESULT": 0.00236}

###

- STATED_CONDITIONS: in isopropanol, 313.15 K

{"STRUCTURE": "CC(=O)OCC(=O)[C@@]12N=C(C)O[C@@H]1C[C@H]1[C@@H]3CCC4=CC(=O)C=C[C@]4(C)[C@H]3[C@@H](O)C[C@@]12C", "solubility (mole fraction)": 0.00305}

###

- STATED_CONDITIONS: in isopropanol, 308.15 K

{"STRUCTURE": "CC(=O)OCC(=O)[C@@]12N=C(C)O[C@@H]1C[C@H]1[C@@H]3CCC4=CC(=O)C=C[C@]4(C)[C@H]3[C@@H](O)C[C@@]12C", "solubility (mole fraction)": 0.00249}

###

- STATED_CONDITIONS: in isopropanol, 293.15 K
PROPERTY_NAME: solubility (mole fraction)

{"STRUCTURE": "CC(=O)OCC(=O)[C@@]12N=C(C)O[C@@H]1C[C@H]1[C@@H]3CCC4=CC(=O)C=C[C@]4(C)[C@H]3[C@@H](O)C[C@@]12C", "RESULT": 0.00127}

###

- STATED_CONDITIONS: in ethyl acetate, 298.15 K
PROPERTY_NAME: solubility (mole fraction)

{"STRUCTURE": "CC(=O)OCC(=O)[C@@]12N=C(C)O[C@@H]1C[C@H]1[C@@H]3CCC4=CC(=O)C=C[C@]4(C)[C@H]3[C@@H](O)C[C@@]12C", "PROPERTY_NAME": "solubility (mole fraction)", "RESULT": 0.00361}

###

- STATED_CONDITIONS: in ethanol, 333.15 K

{"STRUCTURE": "CC(=O)OCC(=O)[C@@]12N=C(C)O[C@@H]1C[C@H]1[C@@H]3CCC4=CC(=O)C=C[C@]4(C)[C@H]3[C@@H](O)C[C@@]12C", "solubility (mole fraction)": 0.00663}

###

- STATED_CONDITIONS: in ethanol, 308.15 K

{"STRUCTURE": "CC(=O)OCC(=O)[C@@]12N=C(C)O[C@@H]1C[C@H]1[C@@H]3CCC4=CC(=O)C=C[C@]4(C)[C@H]3[C@@H](O)C[C@@]12C", "solubility (mole fraction)": 0.00279}

###

- STATED_CONDITIONS: in isopropanol, 303.15 K

{"STRUCTURE": "CC(=O)OCC(=O)[C@@]12N=C(C)O[C@@H]1C[C@H]1[C@@H]3CCC4=CC(=O)C=C[C@]4(C)[C@H]3[C@@H](O)C[C@@]12C", "solubility (mole fraction)": 0.00202}

###

- STATED_CONDITIONS: in ethyl acetate, 333.15 K
PROPERTY_NAME: solubility (mole fraction)

{"STRUCTURE": "CC(=O)OCC(=O)[C@@]12N=C(C)O[C@@H]1C[C@H]1[C@@H]3CCC4=CC(=O)C=C[C@]4(C)[C@H]3[C@@H](O)C[C@@]12C", "PROPERTY_NAME": "solubility (mole fraction)", "RESULT": 0.00668}

###

- STATED_CONDITIONS: in acetone, 323.15 K

{"STRUCTURE": "CC(=O)OCC(=O)[C@@]12N=C(C)O[C@@H]1C[C@H]1[C@@H]3CCC4=CC(=O)C=C[C@]4(C)[C@H]3[C@@H](O)C[C@@]12C", "solubility (mole fraction)": 0.0104}

###

- STATED_CONDITIONS: in ethyl acetate, 328.15 K

{"STRUCTURE": "CC(=O)OCC(=O)[C@@]12N=C(C)O[C@@H]1C[C@H]1[C@@H]3CCC4=CC(=O)C=C[C@]4(C)[C@H]3[C@@H](O)C[C@@]12C", "solubility (mole fraction)": 0.0061}

###

- STATED_CONDITIONS: in ethyl acetate, 313.15 K
PROPERTY_NAME: solubility (mole fraction)

{"STRUCTURE": "CC(=O)OCC(=O)[C@@]12N=C(C)O[C@@H]1C[C@H]1[C@@H]3CCC4=CC(=O)C=C[C@]4(C)[C@H]3[C@@H](O)C[C@@]12C", "RESULT": 0.00465}

###

- STATED_CONDITIONS: in acetone, 303.15 K

{"STRUCTURE": "CC(=O)OCC(=O)[C@@]12N=C(C)O[C@@H]1C[C@H]1[C@@H]3CCC4=CC(=O)C=C[C@]4(C)[C@H]3[C@@H](O)C[C@@]12C", "solubility (mole fraction)": 0.00735}

###

- STATED_CONDITIONS: in ethyl acetate, 308.15 K
PROPERTY_NAME: solubility (mole fraction)

{"STRUCTURE": "CC(=O)OCC(=O)[C@@]12N=C(C)O[C@@H]1C[C@H]1[C@@H]3CCC4=CC(=O)C=C[C@]4(C)[C@H]3[C@@H](O)C[C@@]12C", "RESULT": 0.00426}

###

- STATED_CONDITIONS: in isopropanol, 318.15 K
PROPERTY_NAME: solubility (mole fraction)

{"STRUCTURE": "CC(=O)OCC(=O)[C@@]12N=C(C)O[C@@H]1C[C@H]1[C@@H]3CCC4=CC(=O)C=C[C@]4(C)[C@H]3[C@@H](O)C[C@@]12C", "PROPERTY_NAME": "solubility (mole fraction)", "RESULT": 0.0038}

###

- STATED_CONDITIONS: in acetone, 308.15 K

{"STRUCTURE": "CC(=O)OCC(=O)[C@@]12N=C(C)O[C@@H]1C[C@H]1[C@@H]3CCC4=CC(=O)C=C[C@]4(C)[C@H]3[C@@H](O)C[C@@]12C", "solubility (mole fraction)": 0.00797}

###

- STATED_CONDITIONS: in ethyl acetate, 338.15 K
PROPERTY_NAME: solubility (mole fraction)

{"STRUCTURE": "CC(=O)OCC(=O)[C@@]12N=C(C)O[C@@H]1C[C@H]1[C@@H]3CCC4=CC(=O)C=C[C@]4(C)[C@H]3[C@@H](O)C[C@@]12C", "PROPERTY_NAME": "solubility (mole fraction)", "RESULT": 0.00737}

###

- STATED_CONDITIONS: in isopropanol, 348.15 K

{"STRUCTURE": "CC(=O)OCC(=O)[C@@]12N=C(C)O[C@@H]1C[C@H]1[C@@H]3CCC4=CC(=O)C=C[C@]4(C)[C@H]3[C@@H](O)C[C@@]12C", "solubility (mole fraction)": 0.0121}

###

- STATED_CONDITIONS: in ethyl acetate, 323.15 K

{"STRUCTURE": "CC(=O)OCC(=O)[C@@]12N=C(C)O[C@@H]1C[C@H]1[C@@H]3CCC4=CC(=O)C=C[C@]4(C)[C@H]3[C@@H](O)C[C@@]12C", "solubility (mole fraction)": 0.00559}

###

- STATED_CONDITIONS: in ethanol, 343.15 K
PROPERTY_NAME: solubility (mole fraction)

{"STRUCTURE": "CC(=O)OCC(=O)[C@@]12N=C(C)O[C@@H]1C[C@H]1[C@@H]3CCC4=CC(=O)C=C[C@]4(C)[C@H]3[C@@H](O)C[C@@]12C", "PROPERTY_NAME": "solubility (mole fraction)", "RESULT": 0.00957}

###

- STATED_CONDITIONS: in isopropanol, 323.15 K

{"STRUCTURE": "CC(=O)OCC(=O)[C@@]12N=C(C)O[C@@H]1C[C@H]1[C@@H]3CCC4=CC(=O)C=C[C@]4(C)[C@H]3[C@@H](O)C[C@@]12C", "solubility (mole fraction)": 0.00456}

###

- STATED_CONDITIONS: in acetone, 293.15 K
PROPERTY_NAME: solubility (mole fraction)

{"STRUCTURE": "CC(=O)OCC(=O)[C@@]12N=C(C)O[C@@H]1C[C@H]1[C@@H]3CCC4=CC(=O)C=C[C@]4(C)[C@H]3[C@@H](O)C[C@@]12C", "RESULT": 0.00618}

###

- STATED_CONDITIONS: in isopropanol, 338.15 K
PROPERTY_NAME: solubility (mole fraction)

{"STRUCTURE": "CC(=O)OCC(=O)[C@@]12N=C(C)O[C@@H]1C[C@H]1[C@@H]3CCC4=CC(=O)C=C[C@]4(C)[C@H]3[C@@H](O)C[C@@]12C", "PROPERTY_NAME": "solubility (mole fraction)", "RESULT": 0.00813}
